- System: SNB-75 viability, CellTiter-Glo ATP luminescence, 8-48 h
- Method: SNB-75 astrocytoma cell viability loss, late-stage follow-up, mechanism study for HRAS target identification, CellTiter-Glo ATP luminescence, several timepoints, dry powder (AID 720624)
- Condition Notes: measured here: 48 h treatment
Inconclusive results are not listed.
Outcome Measure: log10 AC50 (log10 of the value in nM)

1. CC(C)(C)OC(=O)NCCOCCOCCOc1ccc(N(C(=O)CCl)C(C(=O)NCCc2ccccc2)c2cccs2)cc1Cl (stereo not given): 3.01
2. Cc1onc(C(=O)N2CCN(C(c3ccc(Cl)cc3)c3ccc(Cl)cc3)CC2)c1[N+](=O)[O-]: 3.02
3. COC(=O)c1ccc([C@@H]2c3[nH]c4ccccc4c3C[C@@H](C(=O)OC)N2C(=O)CCl)cc1: 2.62
4. COc1ccc(N(C(=O)CCl)C(C(=O)NCCc2ccccc2)c2cccs2)cc1Cl (stereo not given): 2.50
5. C#CCCCC(=O)NCCOCCOCCOc1ccc(N(C(=O)CCl)C(C(=O)NCCc2ccccc2)c2cccs2)cc1Cl (stereo not given): 3.68

Hello, the source for this data is PubChem BioAssay AID720624, in case you need it.
